# logP listing for each entry below

>  <CHEMICAL_STRING>
COc1ccc(-c2nc3ccc(O)cc3s2)cc1

>  <logP>
1.75

$$$$
>  <CHEMICAL_STRING>
CNc1ccc(-c2nc3ccc([N+](=O)[O-])cc3s2)cc1

>  <logP>
2.96

$$$$
>  <CHEMICAL_STRING>
CNc1ccc(-c2nc3ccc(Br)cc3s2)cc1I

>  <logP>
4.86

$$$$
>  <CHEMICAL_STRING>
Oc1ccc(-c2nc3ccccc3s2)cc1I

>  <logP>
2.22

$$$$
>  <CHEMICAL_STRING>
COc1ccc(-c2nc3ccc(N)c(I)c3s2)cc1

>  <logP>
2.95

$$$$
>  <CHEMICAL_STRING>
COc1ccc(-c2nc3ccc(N)cc3s2)cc1

>  <logP>
1.76

$$$$
>  <CHEMICAL_STRING>
COCOc1ccc2nc(-c3ccc(N)c(I)c3)sc2c1

>  <logP>
3.03

$$$$
>  <CHEMICAL_STRING>
CNc1ccc(-c2nc3ccc(O)cc3s2)cc1I

>  <logP>
2.35

$$$$
>  <CHEMICAL_STRING>
COC(=O)c1ccc2nc(-c3ccc(N)cc3)sc2c1

>  <logP>
2.07

$$$$
>  <CHEMICAL_STRING>
COc1ccc2nc(-c3ccc(N)c(I)c3)sc2c1

>  <logP>
3.08

$$$$
>  <CHEMICAL_STRING>
Nc1ccc(-c2nc3ccc(Br)cc3s2)cc1I

>  <logP>
4.11

$$$$
>  <CHEMICAL_STRING>
Nc1ccc(-c2nc3ccc([N+](=O)[O-])cc3s2)cc1I

>  <logP>
3.33

$$$$
>  <CHEMICAL_STRING>
Nc1ccc(-c2nc3ccccc3s2)cc1

>  <logP>
1.98

$$$$
>  <CHEMICAL_STRING>
COC(=O)c1ccc2nc(-c3ccc(N)c(I)c3)sc2c1

>  <logP>
3.29

$$$$
>  <CHEMICAL_STRING>
COc1ccc2nc(-c3ccc(O)c(I)c3)sc2c1

>  <logP>
2.31

$$$$
>  <CHEMICAL_STRING>
COc1ccc(-c2nc3ccc(O)c(I)c3s2)cc1

>  <logP>
2.49

$$$$
>  <CHEMICAL_STRING>
COc1ccc2nc(-c3ccc(N)cc3)sc2c1

>  <logP>
1.87

$$$$
>  <CHEMICAL_STRING>
CNc1ccc(-c2nc3ccccc3s2)cc1I

>  <logP>
3.9

$$$$
>  <CHEMICAL_STRING>
Nc1ccc2nc(-c3ccc(O)cc3)sc2c1I

>  <logP>
1.6

$$$$
>  <CHEMICAL_STRING>
Nc1ccc(-c2nc3ccc([N+](=O)[O-])cc3s2)cc1

>  <logP>
2.21

$$$$
